Listed next: entries and their corresponding Cmax.
# assay_info: Dog pharmacokinetics in vivo
# details: plasma, male Beagle dogs, Dose: IV/PO 0.5/4 mg/kg
Reply numerically in ng/mL, unit not repeated.

Known Cmax results, listed for orientation:
[[record]]
compound_structure = "CCn1ncc(C(=O)N[C@H]2N=C(c3ccccc3)c3ccccc3NC2=O)c1-c1ccc(NC2CC2)nc1F"
observed_measurement = 780

[[record]]
compound_structure = "CCNc1ccc(-c2c(C(=O)N[C@H]3N=C(c4ccccc4)c4cccc(F)c4NC3=O)cnn2C2CCOCC2)c(F)n1"
observed_measurement = 450


API: the following record is the query input.
QUERY: Endpoint output: Cmax of CC(C)Nc1ccc(-c2c(C(=O)N[C@H]3N=C(c4ccccc4)c4cccc(F)c4NC3=O)cnn2C2CCOCC2)c(F)n1 . Value?
RESULT: 692
